- System: NCI-H23 lung
- measurement notes: NCI-60 one-dose screen, 48 h (100 = growth as untreated, 0 = no growth, -100 = all killed)
- conditions: 10 µM unless noted
This is part of a sample that, as a whole, favours compounds with a hit. Of some 83,000 tested, about 20% had one in any assay.
Please map values of growth to classes as shown: Low: < 50%; Medium: ≥ 50% and < 80%; High: ≥ 80%

Prompt: State the class of the compound shown: O=C1/C(=C/c2ccc(F)cc2)CN(C(=O)CCN2CCC(=NO)CC2)C/C1=C\c1ccc(F)cc1
Completion: Low

Prompt: State the class of the compound shown: CN1CCCCC1CCN1c2ccccc2Sc2ccc(Cl)cc21 (configuration not stated)
Completion: Medium

Prompt: State the class of the compound shown: CC(=O)/C(=C/c1cccc(Cl)c1)C(=O)c1ccccc1
Completion: High

Prompt: State the class of the compound shown: COc1ccc(Cl)cc1Nc1nc(C(F)(F)F)ccc1C(=O)N/N=C/c1cccnc1
Completion: Low

Prompt: State the class of the compound shown: COc1ccc(S(=O)(=O)NCCCNc2nccc(-c3c(-c4cccc(N)c4)nc4sccn34)n2)cc1
Completion: High

Continuing:
Prompt: State the class of the compound shown: CC1=C(C)C(=O)OC([C@](C)(O)[C@]2(O)CC[C@@]3(O)[C@@H]4C[C@H]5O[C@]56CC=CC(=O)[C@]6(C)[C@H]4CC[C@]23COC(=O)c2ccc(C)o2)C1 (some centres not stated)
Completion: Low

Prompt: State the class of the compound shown: COc1ccc(-c2cc(C(=O)N=Nc3c(O)[nH]c4ccccc34)no2)cc1
Completion: High

Prompt: State the class of the compound shown: c1ccc2c(Nc3cccc4ccccc34)cccc2c1
Completion: Medium

Prompt: State the class of the compound shown: O=S(=O)(NCCCNc1cc(-c2cn(-c3ccccc3)nc2-c2ccccc2)ccn1)c1ccc(C(F)(F)F)cc1
Completion: Medium

Prompt: State the class of the compound shown: CC#CC#Cc1cccc(=O)o1
Completion: Low

Prompt: State the class of the compound shown: COc1ccc(-c2cc(-c3cccnc3)nc3sc4c(=O)n(-c5ccc(C)cc5)nnc4c23)cc1OC
Completion: High

Prompt: State the class of the compound shown: COc1cc(NCCCCCN=C(N)NC(N)=NC(C)C)c2ncccc2c1
Completion: Low

Prompt: State the class of the compound shown: CCCCCCCCCCNC(=O)CCl
Completion: Low

Prompt: State the class of the compound shown: OC(c1cccc(C(F)(F)F)c1)c1cnccc1NC1CCCCCC1 (configuration not stated)
Completion: Low
